assay: logP by reversed-phase HPLC (EEC Directive 79/831 Annex V.A8); type: physicochemical; details: HPLC C18, 40° C., 0.1% aqueous formic acid / acetonitrile gradient
# thresholds on LogP define classes: 0 = under 3, 1 = from 3 up to 4, 2 = 4 and over

STRUCTURE STRING: Cc1nnnn1C(=NOCc1csc(NC(=O)NCCc2ccccc2)n1)c1ccsc1
LABEL: 0
--
STRUCTURE STRING: CCCCCCCCC(=O)Nc1nc(CON=C(c2ccsc2Cl)n2nnnc2C)cs1
LABEL: 2
--
STRUCTURE STRING: COCCOC(=O)Nc1nc(CON=C(c2ccsc2)n2nnnc2C)cs1
LABEL: 0
--
STRUCTURE STRING: COCCOC(=O)Nc1cccc(CON=C(c2ccc(C)o2)n2nnnc2C)n1
LABEL: 0
--
STRUCTURE STRING: Cc1nnnn1C(=NOCc1csc(NC(=O)C(C)(C)C)n1)c1ccc(-c2ccccc2)s1
LABEL: 2
--
STRUCTURE STRING: Cc1ccc(C(=NOCc2csc(NC(=O)NCCc3ccccc3)n2)n2nnnc2C)s1
LABEL: 1
--
STRUCTURE STRING: Cc1nnnn1C(=NOCc1csc(NC(=O)NC(C)C)n1)c1ccsc1
LABEL: 0
--
STRUCTURE STRING: CCCCCOC(=O)Nc1cccc(CON=C(c2csc(-c3ccccc3)n2)c2nnnn2C)n1
LABEL: 2
--
STRUCTURE STRING: COCCOCC(=O)Nc1cccc(CON=C(c2ccsc2Cl)n2nnnc2C)n1
LABEL: 0
--
STRUCTURE STRING: Cc1nnnn1C(=NOCc1csc(NC(=O)CCCCl)n1)c1ccsc1
LABEL: 0
--
STRUCTURE STRING: Cc1nnnn1C(=NOCc1csc(NC(=O)C(C)C)n1)c1ccsc1Cl
LABEL: 0
--
STRUCTURE STRING: CCCCCC(=O)Nc1nc(CON=C(c2cc(-c3ccccc3)c(Cl)s2)n2nnnc2C)cs1
LABEL: 2
--
STRUCTURE STRING: COCCOCC(=O)Nc1nc(CON=C(c2ccc(C)o2)n2nnnc2C)cs1
LABEL: 0
--
STRUCTURE STRING: Cn1nnnc1C(=NOCc1csc(NC(=O)Cc2ccccc2)n1)c1csc(-c2ccccc2)n1
LABEL: 1
--
STRUCTURE STRING: Cc1ccc(C(=NOCc2csc(NC(=O)CCc3ccccc3)n2)n2nnnc2C)s1
LABEL: 1
--
STRUCTURE STRING: Cc1ccc(C(=NOCc2csc(NC(=O)COCc3ccccc3)n2)n2nnnc2C)o1
LABEL: 1
--
STRUCTURE STRING: CCCCCC(=O)Nc1nc(CON=C(c2ccc(Cl)s2)n2nnnc2C)cs1
LABEL: 2
--
STRUCTURE STRING: C=CCC(=O)Nc1nc(CON=C(c2ccsc2Cl)n2nnnc2C)cs1
LABEL: 0

All values here come from patent US8119645B2.
